The entries below are paired with their reported self-splicing fitness (ln).
assay: self-splicing fitness, log relative to wild type (ln ratio); higher = more splicing; Tetrahymena group I intron in knt gene, E. coli kanamycin selection, DiMSum; sequences stand for … in CUCUCU…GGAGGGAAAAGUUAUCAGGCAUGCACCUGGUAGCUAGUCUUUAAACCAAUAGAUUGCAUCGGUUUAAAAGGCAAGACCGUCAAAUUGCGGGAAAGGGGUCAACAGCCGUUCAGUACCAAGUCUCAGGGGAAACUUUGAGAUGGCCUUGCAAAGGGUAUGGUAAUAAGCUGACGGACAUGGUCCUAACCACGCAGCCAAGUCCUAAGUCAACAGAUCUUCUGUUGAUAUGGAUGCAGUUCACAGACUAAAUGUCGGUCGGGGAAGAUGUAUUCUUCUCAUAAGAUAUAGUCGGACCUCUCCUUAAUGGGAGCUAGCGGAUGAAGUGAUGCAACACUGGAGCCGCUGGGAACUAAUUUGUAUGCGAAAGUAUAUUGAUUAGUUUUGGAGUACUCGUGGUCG; settings: 30 °C;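 further: selection with 25 µg/mL kanamycin versus none on LB agar overnight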
Number, no unit, nothing else.

Given item CGGCAGCAAUAUUACGAGGC , the value recorded as its self-splicing fitness (ln) is -2.99

Given item CAUAAGCAAUAUUACGUACC , the value recorded as its self-splicing fitness (ln) is -1.97

Given item UCUGAGCAAUAUUACGCCUG , the value recorded as its self-splicing fitness (ln) is -3.02

Given item GAUCAGCAAUAUUACGAGAC , the value recorded as its self-splicing fitness (ln) is -3.07

---

assay: self-splicing fitness, log relative to wild type (ln ratio); higher = more splicing; Tetrahymena group I intron in knt gene, E. coli kanamycin selection, DiMSum; sequences stand for … in CUCUCU…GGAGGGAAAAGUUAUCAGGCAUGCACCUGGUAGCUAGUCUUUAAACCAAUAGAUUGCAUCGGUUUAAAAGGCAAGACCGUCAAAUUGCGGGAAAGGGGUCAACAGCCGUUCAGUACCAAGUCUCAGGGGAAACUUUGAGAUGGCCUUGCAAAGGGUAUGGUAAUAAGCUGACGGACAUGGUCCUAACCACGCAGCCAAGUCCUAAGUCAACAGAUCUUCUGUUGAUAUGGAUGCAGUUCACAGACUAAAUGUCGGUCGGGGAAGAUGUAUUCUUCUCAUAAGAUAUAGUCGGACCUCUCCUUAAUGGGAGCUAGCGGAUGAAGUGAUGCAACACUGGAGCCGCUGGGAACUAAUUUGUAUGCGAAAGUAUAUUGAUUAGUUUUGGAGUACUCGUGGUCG; conditions: 30 °C
Kind request: treat -0.9 as inclusive, so self-splicing fitness (ln) at -0.9 or higher is met, anything lower is not met.

>  <SEQUENCE CONTENT>
AAUAAGCAAUAUUACGUAGA

>  <CLASS LABEL>
not met

$$$$
>  <SEQUENCE CONTENT>
CGCUAGCAAUAUUACGGCUA

>  <CLASS LABEL>
not met

$$$$
>  <SEQUENCE CONTENT>
AUACAGCAAUAUUACGCAAU

>  <CLASS LABEL>
not met

$$$$
>  <SEQUENCE CONTENT>
CGAAAGCAAUAUUACGGGCC

>  <CLASS LABEL>
not met

$$$$
>  <SEQUENCE CONTENT>
CAAUAGCAAUAUUACGUGUG

>  <CLASS LABEL>
not met

$$$$
>  <SEQUENCE CONTENT>
AAUAAGCAAUAUUACGUACC

>  <CLASS LABEL>
met

$$$$

Test whether the sequence AUCUAGCAAUAUUACGGACG records self-splicing fitness (ln) of -0.9 or higher. met

Test whether the sequence UGAUAGCAAUAUUACGCUCG records self-splicing fitness (ln) of -0.9 or higher. met
